target: Glutamate NMDA receptor; assay: In vitro inhibition of [3H]CPP binding to NMDA receptor.
Listing of entries alongside the reported IC50.

Worked set:
CCCCc1onc(OCC(=O)O)c1CC(N)C(=O)O (stereo unspecified): > 100 µM
O=C(O)[C@H]1CN(CCCP(=O)(O)O)CCN1: 0.05 µM
NC(Cc1c(OCP(=O)(O)O)noc1-c1cccs1)C(=O)O (stereo unspecified): > 100 µM
CC(C)(C)Cc1onc(OCP(=O)(O)O)c1CC(N)C(=O)O (stereo unspecified): > 100 µM
NC(Cc1c(OCC(=O)O)noc1-c1cccs1)C(=O)O (stereo unspecified): > 100 µM

Could you now consider this next molecule?
Which IC50 reading was recorded for the molecule NC(Cc1cc(OCP(=O)(O)O)no1)C(=O)O (stereo unspecified) ?
> 100 µM
